- experimental.system: T1, recombinant human cardiac troponin T (human, UniProt P45379 2-298)
- T1 construct: In the ECL assay the cTnT came from the Troponin T hs CalSet calibrator; also called cTnT; TnT
- method.description: SPR (Biacore T200, 37 C), Fab captured, cTnT analyte
measured.property: t/2-diss (min)
Express your answer in min, writing the number without its unit.

anti-cTnT Fab mutant 11 (Y34I, F60W, V101Y) (Fab, V domains shown, also called combination 11) VH: EVQLQQSGPELVKPGASVKMSCKASGYTFTDYIMKWVKQSHGKSLEWIGDINPNNGETWYNQKFKDKATLTVDKSSSTAYMQLNSLTSEDSAVYYCATRYFDYWGQGTTLTVSS VL: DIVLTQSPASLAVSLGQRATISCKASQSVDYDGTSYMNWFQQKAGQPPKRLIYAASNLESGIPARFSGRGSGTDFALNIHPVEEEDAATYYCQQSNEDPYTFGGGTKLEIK :: 5

So, anti-cTnT Fab mutant 8 (Y34F, V101Y + Y104F) (Fab, V domains shown, also called combination 8) VH: EVQLQQSGPELVKPGASVKMSCKASGYTFTDYFMKWVKQSHGKSLEWIGDINPNNGETFYNQKFKDKATLTVDKSSSTAYMQLNSLTSEDSAVYYCATRYFDFWGQGTTLTVSS VL: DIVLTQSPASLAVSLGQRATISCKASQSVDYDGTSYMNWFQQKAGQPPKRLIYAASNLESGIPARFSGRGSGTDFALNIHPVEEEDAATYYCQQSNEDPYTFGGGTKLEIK ? Its t/2-diss was 22

So, anti-cTnT Fab mutant 13 (Y34I, F60W, V101Y + Y104F) (Fab, V domains shown, also called combination 13) VH: EVQLQQSGPELVKPGASVKMSCKASGYTFTDYIMKWVKQSHGKSLEWIGDINPNNGETWYNQKFKDKATLTVDKSSSTAYMQLNSLTSEDSAVYYCATRYFDFWGQGTTLTVSS VL: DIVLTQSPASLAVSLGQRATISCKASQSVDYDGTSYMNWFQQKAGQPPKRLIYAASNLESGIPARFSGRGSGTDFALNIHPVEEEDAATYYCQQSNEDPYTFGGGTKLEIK ? Its t/2-diss was 6
